This section presents pIC50 values reported for Somatostatin receptor type 4 (Homo sapiens, UniProt P31391) in the literature.
pIC50: −log10 of the molar value.

For orientation, consider the following solved cases.
- compound_structure: "CC(C)[C@@H]1NC(=O)[C@H](CCCCN)NC(=O)[C@@H](Cc2c[nH]c3ccccc23)N(C)C(=O)[C@H](Cc2ccc(O)cc2)NC(=O)[C@H](C)N(C)C(=O)[C@H](Cc2ccccc2)NC1=O"
  pIC50: "< 6.00"
- compound_structure: "CC(C)NCc1ccc(C[C@@H]2NC(=O)[C@@H](Cc3c[nH]c4ccccc34)NC(=O)[C@H](Cc3ccccc3)NC(=O)[C@H](Cc3ccccc3)NC(=O)[C@H](CCCCN)NC(=O)[C@@H](N)CSSC[C@@H](C(=O)N[C@@H](CCCCN)C(=O)N[C@@H](CCCCN)C(=O)N[C@@H](CCCCN)C(=O)O)N(C)C(=O)[C@H](CO)NC(=O)[C@H]([C@@H](C)O)NC(=O)[C@H](Cc3ccccc3)NC(=O)[C@H]([C@@H](C)O)NC2=O)cc1"
  pIC50: "< 6.00"

Now examine the next entry.
Asked: What does the data say about its pIC50? Entry: CC(C)NCc1ccc(C[C@@H]2NC(=O)[C@@H](Cc3c[nH]c4ccccc34)NC(=O)[C@@H]3CCC(=O)NCCCCC[C@H](NC(=O)[C@H](Cc4ccccc4)NC(=O)[C@H]([C@@H](C)O)NC2=O)C(=O)N[C@@H](CO)C(=O)N[C@H](C(=O)O)CSSC[C@H](NC(=O)[C@@H](N)Cc2ccc(O)cc2)C(=O)N[C@@H](CCCCN)C(=O)N[C@@H](Cc2ccccc2)C(=O)N3)cc1
Given back: < 6.00

----------
pIC50: −log10 of the molar value.
This section presents pIC50 values reported for Somatostatin receptor type 4 (Homo sapiens) in the literature.
property_label: pIC50

- compound: "CC(C)[C@@H]1NC(=O)[C@H](CCCCN)NC(=O)[C@@H](Cc2c[nH]c3ccccc23)NC(=O)[C@H](Cc2ccc(O)cc2)NC(=O)[C@H](NC(=O)[C@H](N)Cc2ccc3ccccc3c2)CSSC[C@@H](C(=O)N[C@H](Cc2ccc3ccccc3c2)C(N)=O)NC1=O"
  recorded_result: 6.00

a = NCCCC[C@@H](C(=O)NCc1ccccc1)N1Cc2[nH]c3ccccc3c2C[C@@H](NC(=O)Cc2ccccc2)C1=O
b = NCCCC1CCCN2C(=O)[C@@H](Cc3c[nH]c4ccccc34)SCCN(Cc3cccc4ccccc34)C(=O)C12 (some centres undefined)
c = C[C@@H](O)[C@H](NC(=O)[C@@H]1CSSC[C@@H](NC(=O)[C@H](N)Cc2ccccc2)C(=O)N[C@@H](Cc2cccnc2)C(=O)N[C@H](Cc2c[nH]c3ccccc23)C(=O)N[C@@H](CCCCN)C(=O)N[C@@H]([C@@H](C)O)C(=O)N1)C(N)=O
d = C[C@@H](O)[C@@H]1NC(=O)[C@H](CCCCN)C2C(=O)[C@@H](Cc3c2[nH]c2ccccc32)NC(=O)[C@H](Cc2ccccc2)NC(=O)[C@@H]2CCCC2C(=O)[C@H](Cc2ccccc2)NC1=O (some centres undefined)
Asked: Please produce an ascending ranking of these compounds based on pIC50. Return the labels ranked in the requested order, please.
Given back: c, d, b, a
(c: 6.00, d: 7.00, b: 7.39, a: 8.48)

----------
This section presents pIC50 values reported for Somatostatin receptor type 4 (Homo sapiens, UniProt P31391) in the literature.
pIC50: −log10 of the molar value.
property_label: pIC50

For orientation, consider the following solved cases.
- compound: "C[C@@H](O)[C@@H]1NC(=O)[C@H](CCCCN)NC(=O)[C@H](Cc2c[nH]c3ccccc23)NC(=O)[C@H](Cc2ccccc2)NC(=O)[C@H](Cc2ccccc2)NC(=O)[C@@H](N)CSSC[C@@H](C(=O)O)NC(=O)[C@H](Cc2ccc(O)cc2)NC1=O (stereo in doubt)"
  recorded_result: 8.89
- compound: "CC(C)NCc1ccc(C[C@@H]2NC(=O)[C@@H](N(C)C(=O)c3ccc4ccccc4c3)NC(=O)[C@H](Cc3ccccc3)NC(=O)[C@H](NC(=O)[C@@H](N)Cc3ccc(O)cc3)CSSC[C@@H](C(=O)N[C@@H](Cc3ccc4ccccc4c3)C(N)=O)NC(=O)[C@H](Cc3ccccc3)NC2=O)cc1"
  recorded_result: 6.57

I = C[C@H](c1ccc2ccccc2c1)[C@@H]1NC(=O)[C@H](Cc2ccc(N)cc2)NC(=O)[C@@H](Cc2ccccc2)NC(=O)[C@H](N)CSSC[C@@H](C(=O)O)NC(=O)[C@H](Cc2ccccc2)NC(=O)[C@@H]([C@@H](C)O)NC(=O)[C@H](CCCCN)NC1=O
II = C[C@@H](O)[C@@H]1NC(=O)[C@H](CCCCN)NC(=O)[C@H](Cc2c[nH]c3ccccc23)NC(=O)N(C)[C@H](C(=O)c2ccccc2)NC(=O)[C@H](Cc2ccccc2)NC(=O)[C@@H](N)CSSC[C@@H](C(=O)O)NC(=O)[C@H](Cc2ccccc2)NC1=O (stereo in doubt)
Asked: Given I and given II , which shows the smaller recorded pIC50? State the label of the item chosen.
Given back: II
(II: 6.88, I: 8.06)

----------
This section presents pIC50 values reported for UniProt:P31391 in the literature.
pIC50: −log10 of the molar value.
property_label: pIC50

For orientation, consider the following solved cases.
- compound: "C[C@@H](O)[C@@H]1NC(=O)[C@H](CCCCN)NC(=O)[C@H](Cc2c[nH]c3ccccc23)NC(=O)[C@H](N(C)C(=O)c2ccccc2)NC(=O)[C@H](Cc2ccccc2)NC(=O)[C@@H](N)CSSC[C@@H](C(=O)O)NC(=O)[C@H](Cc2ccccc2)NC1=O"
  recorded_result: 8.27
- compound: "C[C@@H](O)[C@H](NC(=O)[C@H](Cc1ccccc1)NC(=O)[C@@H](NC(=O)[C@H](CCCCN)NC(=O)[C@@H](Cc1c[nH]c2ccccc12)NC(=O)[C@H](Cc1ccc(O)cc1)NC(=O)[C@@H](Cc1ccccc1)NC(=O)[C@@H](N)Cc1ccccc1)[C@@H](C)O)C(N)=O"
  recorded_result: 6.00
- compound: "CC(O)[C@@H]1NC(=O)[C@H](CCCCN)NC(=O)[C@H](Cc2c[nH]c3ccccc23)NC(=O)[C@H](Cc2ccc(N)cc2)NC(=O)C(Cc2ccccc2)NC(=O)C(NC(N)=O)CSSC[C@@H](C(=O)O)NC(=O)[C@H](Cc2ccccc2)NC1=O (single isomer, unassigned)"
  recorded_result: 8.82
- compound: "C[C@@H](O)[C@@H]1NC(=O)[C@H](CCCCN)NC(=O)[C@H](Cc2c[nH]c3ccccc23)NC(=O)[C@H](Cc2ccc(N)cc2)NC(=O)[C@H](Cc2ccccc2)NC(=O)[C@@H](NC(=O)[C@H](Cc2ccc(O)c(I)c2)NC(N)=O)CSSC[C@@H](C(=O)O)NC(=O)[C@H](Cc2ccccc2)NC1=O"
  recorded_result: 8.06

A = C[C@@H](O)[C@@H]1NC(=O)[C@H](CCCCN)NC(=O)[C@H](Cc2c[nH]c3ccccc23)NC(=O)[C@H](CCCN)NC(=O)[C@H](Cc2ccccc2)NC(=O)[C@@H](NC(=O)[C@H](Cc2ccc(O)cc2)NC(N)=O)CSSC[C@@H](C(=O)O)NC(=O)[C@H](Cc2ccccc2)NC1=O
B = CC(C)NCc1ccc(C[C@@H]2NC(=O)[C@@H](N(C)C(=O)c3ccc4ccccc4c3)NC(=O)[C@H](Cc3ccccc3)NC(=O)[C@@H](NC(=O)[C@H](N)Cc3ccc(O)cc3)CSSC[C@@H](C(=O)N[C@H](C(N)=O)[C@@H](C)O)NC(=O)[C@H](Cc3ccccc3)NC2=O)cc1
C = C[C@@H](O)[C@@H]1NC(=O)[C@H](CCCCN)NC(=O)[C@@H](Cc2c[nH]c3ccccc23)NC(=O)N(C)[C@@H](C(=O)c2ccccc2)NC(=O)[C@H](Cc2ccccc2)NC(=O)[C@@H](N)CSSC[C@@H](C(=O)O)NC(=O)[C@H](Cc2ccccc2)NC1=O (stereo in doubt)
Asked: Please produce an ascending ranking of these compounds based on pIC50. Return the labels ranked in the requested order, please.
Given back: B, C, A

----------
pIC50: −log10 of the molar value.
This section presents pIC50 values reported for Somatostatin receptor type 4 (Homo sapiens) in the literature.

- compound: "CONC(=O)Nc1ccc(C[C@@H]2NC(=O)[C@@H](NC(=O)[C@@H](Cc3ccccc3)NC(N)=O)CSSC[C@@H](C(=O)N[C@H](C(N)=O)[C@@H](C)O)NC(=O)[C@H]([C@@H](C)O)NC(=O)[C@H](CCCCN)NC(=O)[C@@H](Cc3c[nH]c4ccccc34)NC2=O)cc1"
  tested_target: "Somatostatin receptor type 4 (Homo sapiens)"
  pIC50: "< 6.00"
- compound: "CC(C)NCc1ccc(C[C@@H]2NC(=O)[C@@H](Cc3ccc4ccccc4c3)NC(=O)[C@H](Cc3ccccc3)NC(=O)[C@H](Cc3ccccc3)NC(=O)[C@H](CCCCN)NC(=O)[C@H](NC(=O)CCc3ccc(O)cc3)CSSC[C@@H](C(=O)O)NC(=O)[C@H](CO)NC(=O)[C@H]([C@@H](C)O)NC(=O)[C@H](Cc3ccccc3)NC(=O)[C@@H]([C@@H](C)O)NC2=O)cc1 (stereo in doubt; 31)"
  tested_target: "Somatostatin receptor type 4 (Homo sapiens)"
  pIC50: "< 6.00"
- compound: "CC(C)NCc1ccc(C[C@@H]2NC(=O)[C@@H](Cc3ccc4ccccc4c3)NC(=O)[C@H](Cc3ccccc3)NC(=O)[C@H](Cc3ccccc3)N(C)C(=O)[C@H](CCCCN)NC(=O)[C@@H](N)CSSC[C@@H](C(=O)O)NC(=O)[C@H](CO)NC(=O)[C@H]([C@@H](C)O)NC(=O)[C@H](Cc3ccccc3)NC(=O)[C@H]([C@@H](C)O)NC2=O)cc1"
  tested_target: "Somatostatin receptor type 4 (Homo sapiens)"
  pIC50: "< 6.00"

Asked: What does the data say about its pIC50? Entry: C[C@@H](O)[C@@H]1NC(=O)[C@@H](NC(=O)CCN)NC(=O)[C@@H](Cc2c[nH]c3ccccc23)NC(=O)[C@H](Cc2ccccc2)NC(=O)[C@H](Cc2ccccc2)NC(=O)[C@@H](N)CSSC[C@@H](C(=O)O)NC(=O)[C@H](Cc2ccccc2)NC1=O (stereo in doubt; 17)
Given back: < 6.00

Asked: Field entry: CC(C)NCc1ccc(C[C@@H]2NC(=O)[C@@H](Cc3ccc4ccccc4c3)N(C)C(=O)[C@H](Cc3ccccc3)NC(=O)[C@H](Cc3ccccc3)NC(=O)[C@H](CCCCN)NC(=O)[C@@H](N)CSSC[C@@H](C(=O)O)NC(=O)[C@H](CO)NC(=O)[C@H]([C@@H](C)O)NC(=O)[C@H](Cc3ccccc3)NC(=O)[C@H]([C@@H](C)O)NC2=O)cc1
Given back: < 6.00

Asked: Field entry: CC(C)NCc1ccc(C[C@@H]2NC(=O)[C@@H](N(C)C(=O)c3ccc4ccccc4c3)NC(=O)[C@H](Cc3ccccc3)NC(=O)[C@@H](N)CSSC[C@@H](C(=O)N[C@H](C(N)=O)[C@@H](C)O)NC(=O)[C@H](Cc3ccccc3)NC2=O)cc1
Given back: 7.02

Asked: Field entry: C[C@@H](O)[C@@H]1NC(=O)[C@H](CCCCN)NC(=O)[C@@H](Cc2c[nH]c3ccccc23)NC(=O)[C@H](Cc2ccccc2)NC(=O)[C@H](Cc2ccccc2)NC(=O)[C@H](CC(N)=O)NC(=O)[C@@H](N)CSSC[C@@H](C(=O)O)NC(=O)[C@H](Cc2ccccc2)NC1=O
Given back: 8.92
